Below, each entry is listed with its recorded RP-LC retention time.
# EXPERIMENT_SUMMARY: gradient 5% acetonitrile 3 min, to 50% in 2 min, to 85% in 15 min, held 3 min, 100 µL/min
# CONDITION_SUMMARY: column: Zorbax Extend-C18 2.1 x 50 mm; eluents: water / acetonitrile, 0.1% formic acid
# unit: s | format: bare number

Known RP-LC retention time results, listed for orientation:
# COMPOUND, MEASURED_ATTRIBUTE, DISPLAY_UNIT, NUMERIC_VALUE
measured = [
    ("Cc1cc(C(=O)N2CCN(c3ccc(-c4cccs4)nn3)CC2)no1", "RP-LC retention time", "s", 659),
    ("CN1C(=O)c2cc(C(=O)NCc3cccc(Cl)c3)nn2CC1(C)C(=O)NCc1ccccc1 (centres undefined)", "RP-LC retention time", "s", 793),
    ("O=C1c2ccccc2C(=O)C1c1ccccn1", "RP-LC retention time", "s", 749),
]

Any idea what RP-LC retention time was measured for COc1ccc(-c2noc(-c3nn(-c4cccc(F)c4)ccc3=O)n2)cc1 ?
874

Ok, now COc1ccc(-n2c(=O)c3sccc3n(Cc3nc(-c4ccc(F)cc4)no3)c2=O)cc1
964

Quick one: Cc1cc(C)c2c(N3CCSCC3)nc(C(=O)N3CCCC3)nc2n1
617

Ok, now CCCN1CCN(CCCNC(=O)C(C)n2c3ccccc3c3cnn(C)c(=O)c32)CC1 (centres undefined)
571

Field entry: O=C(NC1CCCC1)C1CCCN(C(=O)c2cc(-c3ccccn3)n[nH]2)C1 (centres undefined)
616

###

# EXPERIMENT_SUMMARY: gradient 5% acetonitrile 3 min, to 50% in 2 min, to 85% in 15 min, held 3 min, 100 µL/min
# CONDITION_SUMMARY: column: Zorbax Extend-C18 2.1 x 50 mm; eluents: water / acetonitrile, 0.1% formic acid
MEASURED_ATTRIBUTE: RP-LC retention time (s)
The figure you give is taken to be in s; do not add the unit.

Please review the entries below; each comes with its answer.
# COMPOUND, RP-LC retention time (s)
measured = [
    ("COC(=O)c1cc(OCC(=O)NC2CCCCC2)c2cc(OC)c(OC)cc2n1", 725),
    ("Cc1nc(C)c(C(=O)N2CCC(Oc3ccc(-c4noc(C5CC5)n4)cc3)C2)s1 (stereo not given)", 860),
    ("CCCn1cc(S(=O)(=O)Nc2cc(Cl)ccc2OC)c2cccnc21", 995),
    ("COC(=O)c1ccc(-c2nc3cnccn3c2Nc2ccc3c(c2)OCCO3)cc1", 813),
]

Now look at this one.
Which RP-LC retention time reading was recorded for the compound O=C(c1cn(-c2ccc(S(=O)(=O)N3CCOCC3)cc2)cn1)N1CCN(c2ccccn2)CC1 ?
598

###

# EXPERIMENT_SUMMARY: gradient 5% acetonitrile 3 min, to 50% in 2 min, to 85% in 15 min, held 3 min, 100 µL/min
# CONDITION_SUMMARY: column: Zorbax Extend-C18 2.1 x 50 mm; eluents: water / acetonitrile, 0.1% formic acid
MEASURED_ATTRIBUTE: RP-LC retention time (s)
Report only the number, with the unit s understood.

Solved entries (count: 5):
# MOLECULE, RP-LC retention time / s
records = [
    ("COc1cccc(NS(=O)(=O)c2cc3n(c2)CCN(C)C3=O)c1", 674),
    ("Cc1cc(C)c(S(=O)(=O)N2CCC[C@@H]2C(=O)NCCc2csc(C)n2)c(C)c1", 814),
    ("COc1c(C(=O)NC(C)C)sc2cccc(F)c12", 968),
    ("COc1ccc(C(=O)N2CCC(COCc3ccccc3)CC2)cc1", 915),
    ("Cc1noc([C@@H]2CN(C(=O)c3cn[nH]c3)C[C@H]2C(N)=O)n1", 536),
]

I am curious: what RP-LC retention time value has been reported for Cc1cccc(NC(=O)C2CCN(S(=O)(=O)c3cccc4nsnc34)CC2)c1C ?
895

Then what about the molecule CCOC(=O)c1[nH]c(C)c(CCC(=O)N2CCC(C(=O)NC(C)CC)CC2)c1C (stereo not given) ?
723

Now consider CSc1ccc(CNC(=O)C2CCN(Cc3cn(C)c4ccc(Cl)cc34)CC2)cc1 and answer again.
766

// same read-out, input: CCSc1nnc(NC(=O)CNC(=O)c2ccc(=O)[nH]c2)s1
571

// repeat for COc1ccc(-c2nc(-c3ccc(-c4ccc(Cl)cc4)o3)[nH]c2-c2ccc(OC)cc2)cc1 and report
988
